# System: c-Abl (mouse);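 further: 11-residue human phosphosite peptides and single-mutation variants displayed on the E. coli surface, counted by deep sequencing, each peptide's frequency after selection divided by its frequency in the unselected input library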;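 further: frequency after pTyr selection over input frequency; kinase dosed for 20-30% of maximal phosphorylation in three min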
# experimentDescription: phosphorylation enrichment, bacterial display (enrichment ratio); higher = better substrate or ligand; peptides without Tyr show the background
parameter: phosphorylation enrichment

[[record]]
sequencetext = "GISDEYHVIWH [GCDH_Y398_R402W]"
parameter = "phosphorylation enrichment"
val = 0.818

[[record]]
sequencetext = "RAADYYSQQMA [GBP6_Y334]"
parameter = "phosphorylation enrichment"
val = 0.576

[[record]]
sequencetext = "ADVLDYIKALN [HPRT1_Y81_L78V]"
parameter = "phosphorylation enrichment"
val = 0.467

[[record]]
sequencetext = "TEGNGYISFNE [LCP1_Y28_D24E]"
parameter = "phosphorylation enrichment"
val = 0.723

[[record]]
sequencetext = "AFRRGYFDEEM [PLEC_Y2971_YF]"
parameter = "phosphorylation enrichment"
val = 0.763

[[record]]
sequencetext = "PKGWNYELPAT [PROM1_Y34_A31G]"
parameter = "phosphorylation enrichment"
val = 0.696

[[record]]
sequencetext = "PDDPNYSLVDD [PSTPIP2_Y323]"
parameter = "phosphorylation enrichment"
val = 0.8

[[record]]
sequencetext = "YSPCDYQPCLA [TNS1_Y798_Y796C]"
parameter = "phosphorylation enrichment"
val = 0.827

[[record]]
sequencetext = "GHLYACDWISI [BEST1_Y227_Y227C]"
parameter = "phosphorylation enrichment"
val = 1.05

[[record]]
sequencetext = "MAPQMYESHLP [NCAPD2_Y6_F8S]"
parameter = "phosphorylation enrichment"
val = 0.437

[[record]]
sequencetext = "QGLMPYGQPRP [SRRT_Y798]"
parameter = "phosphorylation enrichment"
val = 0.725

[[record]]
sequencetext = "CENCHYPIVPL [LCK_Y25]"
parameter = "phosphorylation enrichment"
val = 0.567

[[record]]
sequencetext = "QMVRMYASSYM [AVPR2_Y124_G122R]"
parameter = "phosphorylation enrichment"
val = 0.675

[[record]]
sequencetext = "VMTSKYRGGGG [HBA1_Y141_L137M]"
parameter = "phosphorylation enrichment"
val = 0.384


# credit: the supplement of paper PMC10065799
